Measured kon by item
# SYSTEM TESTED: T1, monkey GPC3-His protein (monkey)
# T1 construct: Bought recombinant protein; also called monkey GPC3 protein
# ASSAY PROTOCOL: SPR, antibody captured on Protein A chip, monkey GPC3-His analyte;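 further: run at 25 °C with 240 s association and up to 600 s dissociation, double-referenced, kinetics fitted to a 1:1 Langmuir binding model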
Kindly format the answer as number then unit.

Q) Which kon value belongs to F1.118.4 (antibody, human IgG1, kappa, V domains shown, Human-murine chimeric antibody) VH: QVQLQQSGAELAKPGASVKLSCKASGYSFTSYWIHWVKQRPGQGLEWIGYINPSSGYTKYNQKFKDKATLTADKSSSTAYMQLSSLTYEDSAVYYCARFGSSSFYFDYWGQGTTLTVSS VL: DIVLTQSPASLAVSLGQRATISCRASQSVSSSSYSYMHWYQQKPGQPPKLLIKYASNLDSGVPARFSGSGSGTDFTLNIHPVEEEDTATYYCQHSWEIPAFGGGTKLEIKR ?
A) 453000 M⁻¹ s⁻¹

Q) Which kon value belongs to F3.38.7 (antibody, human IgG1, kappa, V domains shown, Human-murine chimeric antibody) VH: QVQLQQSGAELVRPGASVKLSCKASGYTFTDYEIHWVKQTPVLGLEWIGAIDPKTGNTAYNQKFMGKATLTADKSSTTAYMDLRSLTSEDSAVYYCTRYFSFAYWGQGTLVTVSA VL: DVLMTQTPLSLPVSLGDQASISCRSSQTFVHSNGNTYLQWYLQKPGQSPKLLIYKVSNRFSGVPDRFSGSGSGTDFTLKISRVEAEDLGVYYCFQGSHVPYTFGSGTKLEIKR ?
A) 532000 M⁻¹ s⁻¹

Q) Which kon value belongs to F4.18.4 (antibody, human IgG1, kappa, V domains shown, Human-murine chimeric antibody) VH: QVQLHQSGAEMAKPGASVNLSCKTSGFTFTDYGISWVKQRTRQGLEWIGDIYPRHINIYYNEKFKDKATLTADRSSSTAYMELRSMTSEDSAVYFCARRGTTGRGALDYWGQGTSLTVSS VL: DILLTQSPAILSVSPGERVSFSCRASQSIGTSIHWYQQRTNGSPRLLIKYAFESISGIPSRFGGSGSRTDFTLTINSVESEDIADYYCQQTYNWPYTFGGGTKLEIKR ?
A) 119000 M⁻¹ s⁻¹
